- Test system: S. aureus ATCC29213
- method description: MIC assay
- Type: cell-based, Staphylococcus aureus
- details: S. aureus ATCC29213 MSSA
The following compounds are shown together with reported MIC values.
Give your result in µg/mL as a bare value.

Study these solved cases before continuing.
CCCCCCCCCCCCNC(N)=Nc1ccc(CN[C@@]2(C)C[C@H](O[C@H]3[C@H](Oc4c5cc6cc4Oc4ccc(cc4Cl)[C@@H](O)[C@@H](NC(=O)[C@@H](CC(C)C)NC)C(=O)N[C@@H](CC(N)=O)C(=O)N[C@H]6C(=O)N[C@H]4C(=O)N[C@H](C(=O)N[C@H](C(=O)O)c6cc(O)cc(O)c6-c6cc4ccc6O)[C@H](O)c4ccc(c(Cl)c4)O5)O[C@H](CO)[C@@H](O)[C@@H]3O)O[C@@H](C)[C@H]2O)cc1 [Compound 9] : 0.125
CN[C@H](CC(C)C)C(=O)N[C@H]1C(=O)N[C@@H](CC(N)=O)C(=O)N[C@H]2C(=O)N[C@H]3C(=O)N[C@H](C(=O)N[C@H](C(=O)O)c4cc(O)cc(O)c4-c4cc3ccc4O)[C@H](O)c3ccc(c(Cl)c3)Oc3cc2cc(c3O[C@@H]2O[C@H](CO)[C@@H](O)[C@H](O)[C@H]2O[C@H]2C[C@](C)(NCc3ccc(N=C(N)NC/C=C(\C)CC/C=C(\C)CCC=C(C)C)cc3)[C@H](O)[C@H](C)O2)Oc2ccc(cc2Cl)[C@H]1O [Compound 15] : 0.03125

Shift focus to the following entry.
Prompt: Read off the recorded MIC for CCCCN(CCCC)C(N)=Nc1ccc(CN[C@@]2(C)C[C@H](O[C@H]3[C@H](Oc4c5cc6cc4Oc4ccc(cc4Cl)[C@@H](O)[C@@H](NC(=O)[C@@H](CC(C)C)NC)C(=O)N[C@@H](CC(N)=O)C(=O)N[C@H]6C(=O)N[C@H]4C(=O)N[C@H](C(=O)N[C@H](C(=O)O)c6cc(O)cc(O)c6-c6cc4ccc6O)[C@H](O)c4ccc(c(Cl)c4)O5)O[C@H](CO)[C@@H](O)[C@@H]3O)O[C@@H](C)[C@H]2O)cc1 [Compound 11]
Completion: 0.125
